Biological target: BTK (Homo sapiens (Human))
Assay: Inhibition of B-cell activation measured by CD69 expression in primary CD19+ cells
Settings: primary CD19+ cells stimulated with anti-human IgD, CD69 expression by flow cytometry
Protocol: Cells were collected and plated in a 96 flat bottom plate at a concentration of 2×10^5/well in RPMI media containing 10% FBS, rested for 1 hour at 37° c. Cells were treated with inhibitor in duplicates or vehicle control in 1% DMSO final concentration for 1 hour at 37° c., 5% CO2. […] B cells were analyzed by flow cytometry using a BD LSRII or BD FACsCanto Flow Cytometer. Viable cells were gated, and CD69 percentage was determined using FlowJo software.
Readout name: IC50 (nM)

Sample answers from the record:
> print(dat)
                                   molecule  scale.unit  reported.result
1  CC#CC(=O)N1CC2(CC(n3nc(-c4ccc(OCCC)cc4)c(C(N)=O)c3N)C2)C1 [Example 107]          nM              8.2
2  C=CC(=O)N1CC[C@]2(C1)C[C@H](n1nc(-c3ccc(OCC(F)(F)F)cc3)c(C(N)=O)c1N)C2 [Example 163]          nM               15
3  C=CC(=O)N1CC2(CC(n3cc(C(N)=O)c(-c4ccc(Oc5ccccc5)cc4)n3)C2)C1 [Example 28]          nM                9
4  C=CC(=O)N1CCC[C@@H](c2nc(-c3ccc(Oc4ccccc4)cc3)c(C(N)=O)[nH]2)C1 [Example 46]          nM                2
5  CC#CC(=O)N1CC[C@]2(C1)C[C@H](n1nc(-c3ccc(OCCC)c(F)c3)c(C(N)=O)c1N)C2 [Example 161]          nM              2.1

a. C=CC(=O)N1CC[C@]2(C1)C[C@H](n1cc(C(N)=O)c(-c3ccc(Oc4ccccc4)cc3)n1)C2 [Example 40]
b. C=CC(=O)N1CC2(CC(n3nc(-c4ccc(OC5CC5)cc4)c(C(N)=O)c3N)C2)C1 [Example 112]
c. C=CC(=O)N1CC[C@]2(C1)C[C@H](n1nc(-c3ccc(OCCC)c(F)c3)c(C(N)=O)c1N)C2 [Example 165]
d. CC#CC(=O)N1CC[C@]2(C1)C[C@H](n1nc(-c3ccc(OCC(F)(F)F)cc3)c(C(N)=O)c1N)C2 [Example 164]
e. CC#CC(=O)N1CC2(CC(n3nc(-c4ccc(Oc5ccccc5)cc4)c(C(N)=O)c3N)C2)C1 [Example 41]
[Q] Rank descending by IC50. Kindly provide the labels arranged according to the requested ordering.
[A] b, a, c, d, e

a. CC#CC(=O)N1CC2(CC(n3nc(-c4ccc(OC(C)C)cc4)c(C(N)=O)c3N)C2)C1 [Example 106]
b. CC#CC(=O)N1CC[C@]2(C1)C[C@H](n1nc(-c3ccc(OC(F)(F)F)cc3)c(C(N)=O)c1N)C2 [Example 160]
[Q] Between item a and item b , which reported IC50 is smaller? Kindly state the label of the option you pick.
[A] b

---

Target: full-length human His-tagged BTK (Homo sapiens (Human))
Sequence (Q06187 whole entry): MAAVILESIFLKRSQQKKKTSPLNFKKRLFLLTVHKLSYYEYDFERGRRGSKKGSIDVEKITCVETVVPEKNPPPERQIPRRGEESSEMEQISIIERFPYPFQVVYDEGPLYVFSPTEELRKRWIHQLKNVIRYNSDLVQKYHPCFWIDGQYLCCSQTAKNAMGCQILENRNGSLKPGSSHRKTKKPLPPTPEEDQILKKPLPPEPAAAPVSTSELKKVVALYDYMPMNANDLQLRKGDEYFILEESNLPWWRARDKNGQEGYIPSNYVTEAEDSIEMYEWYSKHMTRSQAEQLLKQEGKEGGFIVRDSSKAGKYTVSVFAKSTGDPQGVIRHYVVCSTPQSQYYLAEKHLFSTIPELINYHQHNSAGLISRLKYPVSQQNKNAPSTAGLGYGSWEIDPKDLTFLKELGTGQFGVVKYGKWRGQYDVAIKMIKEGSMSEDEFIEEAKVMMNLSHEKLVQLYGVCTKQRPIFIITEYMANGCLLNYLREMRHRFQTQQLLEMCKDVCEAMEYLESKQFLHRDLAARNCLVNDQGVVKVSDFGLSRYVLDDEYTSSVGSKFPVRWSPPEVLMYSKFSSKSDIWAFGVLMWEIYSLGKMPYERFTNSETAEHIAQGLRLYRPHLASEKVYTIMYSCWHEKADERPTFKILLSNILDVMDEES
Assay: BTK Assay (HTRF, Cisbio KinEASE-TK)
Type: biochemical
Details: 6 nM BTK, 30 uM ATP, 15 min preincubation
pIC50: −log10 of the molar value.
Readout name: pIC50

# example entries with known answers
> print(dat)
                                test.smiles  reported.result
1  CC#CC(=O)N1CC2(CC(n3nc(-c4ccc(OCCC)c(Cl)c4)c(C(N)=O)c3N)C2)C1             8.52
2  CC#CC(=O)N1CC[C@]2(C1)C[C@H](n1nc(-c3ccc(Oc4ccccc4)cc3)c(C(N)=O)c1N)C2             9.10

P. C=CC(=O)N1CCC[C@@H](n2cc(C(N)=O)c(-c3ccc(OCc4ccccc4)cc3)n2)C1
Q. C=CC(=O)N1CC2(CC(n3nc(-c4ccc(OCCC)c(F)c4)c(C(N)=O)c3N)C2)C1
[Q] Returns: the argument ( P or Q ) having the larger pIC50. Identify your selection by its label.
[A] Q

Data provenance is patent US10138229B2.
